# Test system: HOP-92 NSCLC
# Measurement Notes: NCI tumour cell line growth inhibition, 48 h
Parameter Measured: GI50

Please give GI50, item by item, for the list that follows.
1. C=C(CC(=O)O)C(=O)O (tested in a mixture with another compound)
2. O=S1(=O)CS(=O)(=O)OCCO1
3. CN1CCN(c2nc(NCCCNc3ccnc4cc(Cl)ccc34)c3ccccc3n2)CC1
4. Cc1cc2nc3cc(C)c(N)cc3[n+](-c3ccccc3)c2cc1N
5. C[CH2][Ge]([CH2]C)([CH2]C)[O]C(=O)CCC(=O)[O][Ge]([CH2]C)([CH2]C)[CH2]C
6. Cc1ccc(C2=C(c3ccccc3)C(c3ccccc3)Oc3ccc(C)cc32)cc1 (configuration not stated)
7. CCC(=O)Nc1ccccc1C#C/C=C\C#Cc1ccccc1C(F)(F)F

Response given:
1. > 50 µg/mL
2. > 49.7 µM
3. 2.07 µM
4. 3.88 µM
5. 16.2 µM
6. 11.4 µM
7. 3.01 µM

Please give GI50, item by item, for the list that follows.
1. C/C=C/[C@H]1O[C@@H]2C(=C[C@H]1O)C(=O)O[C@H]2C
2. CCc1cc2ncc(CN3CCN(c4ccc(C(=O)NC)nc4)CC3)cc2[nH]c1=O
3. OCCNCCCOc1ccc2ncnc(Nc3ccc(Oc4cccc(C(F)(F)F)c4)c(Cl)c3)c2c1
4. Cc1cc(C(=O)O)c(C)n1-c1cccc(C(=O)O)c1
5. CN(C)CC(C(=O)Cc1ccccc1)c1ccccc1 (configuration not stated)

Response given:
["1.55 µM", "12.3 µM", "1.05 µM", "> 100 µM", "2.78 µM"]

----------
# Test system: NCI-H522 lung
# Measurement Notes: NCI tumour cell line growth inhibition, 48 h
Parameter Measured: GI50

Consider the following illustrative entries.
>  <Molecule>
C[n+]1c(-c2ccc(/C=N/NC(=O)c3ccc(C(=O)N/N=C/c4ccc(-c5cn6ccccc6[n+]5C)cc4)cc3)cc2)cn2ccccc21

>  <Experimental Target>
NCI-H522 lung

>  <GI50>
186 µM

$$$$
>  <Molecule>
Cc1[nH]c(-c2nc3ccccc3[nH]2)c(C)c1C(=O)NC(C)C1CCCCC1 (centres undefined)

>  <Experimental Target>
NCI-H522 lung

>  <GI50>
13.2 µM

$$$$
>  <Molecule>
CN1CCN(Cc2ccc(NC(=O)c3cncc(C#Cc4cncc5nccnc45)c3)cc2C(F)(F)F)CC1

>  <Experimental Target>
NCI-H522 lung

>  <GI50>
3.17 µM

$$$$
>  <Molecule>
C/C=C/[C@H]1O[C@@H]2C(=C[C@H]1O)C(=O)O[C@H]2C

>  <Experimental Target>
NCI-H522 lung

>  <GI50>
5.02 µM

$$$$
>  <Molecule>
Cc1cc2nc3cc(C)c(N)cc3[n+](-c3ccccc3)c2cc1N

>  <Experimental Target>
NCI-H522 lung

>  <GI50>
3.73 µM

$$$$
>  <Molecule>
Cc1[nH]nc2c1N=C(c1ccccc1F)c1cc(C(N)=O)ccc1N2

>  <Experimental Target>
NCI-H522 lung

>  <GI50>
2.19 µM

$$$$
>  <Molecule>
CCc1cc2ncc(CN3CCN(c4ccc(C(=O)NC)nc4)CC3)cc2[nH]c1=O

>  <Experimental Target>
NCI-H522 lung

>  <GI50>
27.1 µM

$$$$
>  <Molecule>
N#Cc1c(N)nc(N)nc1N[C@H](c1nc2c(F)ccc(Cl)c2c(=O)n1-c1cccnc1)C1CC1

>  <Experimental Target>
NCI-H522 lung

>  <GI50>
34.2 µM

$$$$

Challenge: May I ask what GI50 has been recorded for O=C1Nc2ccccc2/C1=C\c1nc(C2CCN(S(=O)(=O)c3ccc(F)cc3)CC2)n2ccccc12 ?
Response given: 1.94 µM
